Cited source: PubChem BioAssay (NCI)

Test system: A549/ATCC NSCLC
TEST PROTOCOL: NCI-60 one-dose screen, 48 h
APPLIED CONDITIONS: 10 µM unless noted
Protocol: Growth inhibition of the A549/ATCC human Non-Small Cell Lung tumor cell line is measured as a screen for anti-cancer activity. Cells are grown in 96 well plates and exposed to the test compound for 48 hours. Compounds are tested at a single concentration, which is 10^-5 M for most compounds. The reported endpoint is percent growth (GI% or GIPRCNT), where numbers from 0 - 100% represent growth inhibition, and numbers from -100% - 0 represent cell death. […]
The panel holds about 83,000 compounds, 20% with a hit somewhere; the sample as a whole holds those more often. Activity calls are given as the source filed them. Rule for the calls: active = growth percent below 10; inactive = the rest.
Answer with one of the outcomes given here: Yes for active, No for inactive

Name the outcome recorded for CSc1nc2c(c(=O)n1C)C1(C(=O)N(Cc3ccccc3)c3ccccc31)c1c(nc(SC)n(C)c1=O)N2 in the assay.
No

Name the outcome recorded for C/C=C/C1OC23CCCCC2C(C#N)(C(=N)O3)C1(C#N)C#N (stereo unspecified) in the assay.
No

Name the outcome recorded for CC(=O)OC[C@]12CC[C@@H](C(=O)CBr)[C@@H]1[C@H]1CC[C@@H]3[C@@]4(C)CCCNC(C)(C)[C@@H]4CC[C@@]3(C)[C@]1(C)CC2 in the assay.
Yes

Name the outcome recorded for c1ccc(-c2nc(N3CCCNCC3)c3nc(-c4ccccc4)oc3n2)cc1 in the assay.
Yes

Name the outcome recorded for CCNc1cc2c(cc1Br)-c1ccccc1C2=O in the assay.
No

Name the outcome recorded for C[C@@H]1C[C@H]2C(=O)O[C@@H](C)[C@H](NC(=O)[C@H](Cc3cc(F)cc(F)c3)NC(=O)Nc3ccc(C4CC4)cc3F)C(=O)N3CCC[C@H]3C(=O)N3CCCC[C@H]3C(=O)N[C@@H](C)C(=O)N2C1 in the assay.
No

Name the outcome recorded for CNC(=O)c1cc(Oc2cccc3nc(NC(=O)Nc4cc(C(F)(F)F)cc(C(F)(F)F)c4)ccc23)ccn1 in the assay.
No

Name the outcome recorded for O=C(N/N=C1\c2ccccc2-c2cccc(C(=O)O)c21)c1ccc(O)cc1 in the assay.
No

Name the outcome recorded for O=C(NNc1ccc(-c2ccccc2)nn1)c1ccc(F)cc1 in the assay.
No

Name the outcome recorded for Cc1cc(SC#N)ncn1 in the assay.
No

Name the outcome recorded for Cc1ncc(C(=O)Nc2ccc(CN3CCN(C)CC3)c(C(F)(F)F)c2)cc1C#Cc1c(N)ncc2ccc(C#N)cc12 in the assay.
No

Name the outcome recorded for Cc1ccc(S(=O)(=O)Oc2ccc([N+](=O)[O-])cc2[N+](=O)[O-])cc1 in the assay.
No

Name the outcome recorded for N#CC1C(=O)NC(c2ccccc2[N+](=O)[O-])c2sc3c(F)cccc3c21 (stereo unspecified) in the assay.
No

Name the outcome recorded for Cc1cc(C)c(O)c(CNCCCNCc2cc(C)cc(C)c2O)c1 in the assay.
No

Name the outcome recorded for COc1ccc(C2=C(c3cn(C)c4ccccc34)C(=O)OC2)cc1OC in the assay.
No

Name the outcome recorded for CCN(CC)CCCC(C)Nc1c2ccc(C)cc2nc2ccc(OC)cc12 (stereo unspecified) in the assay.
No

Name the outcome recorded for COc1ccc2nc3cc(Cl)ccc3c(Nc3ccc(O)cc3)c2c1 in the assay.
No

Name the outcome recorded for O=C(NCCCCCCCNC(=O)OCc1ccc2c(Cl)cc(Cl)c(O)c2n1)OCc1ccc2c(Cl)cc(Cl)c(O)c2n1 in the assay.
Yes

Name the outcome recorded for Cc1cccc(C[C@H](NC(=O)Nc2ccc(Cl)cc2F)C(=O)N[C@@H]2C(=O)N3C[C@H](OC(=O)CCN(C)C)C[C@H]3C(=O)N3CCCC[C@H]3C(=O)N[C@@H](C)C(=O)N3C[C@H](C)C[C@H]3C(=O)O[C@H]2C)c1 in the assay.
No

Name the outcome recorded for COc1ccc(-c2cc(-c3ccccc3)nc(NCCNc3ccnc4cc(Cl)ccc34)n2)cc1 in the assay.
Yes

Name the outcome recorded for Brc1ccc(-c2nnc3c4[nH]ccc4ncn23)cc1 in the assay.
No

Name the outcome recorded for CC(C)=CC/C=C(/C)[C@H]1CC[C@]2(C)[C@@H]1CC[C@@H]1[C@@]3(C)CCC(=O)NC(C)(C)[C@@H]3CC[C@]12C in the assay.
No

Name the outcome recorded for C=C(C)[C@@H]1CC[C@]2(C(N)=O)CC[C@]3(C)[C@H](CC[C@@H]4[C@@]5(C)CC[C@H](O)C(C)(C)[C@@H]5CC[C@]43C)[C@@H]12 in the assay.
Yes

Name the outcome recorded for Cc1cc2c(C(C)C)c(O)c(O)c(C=NCc3ccoc3)c2c(O)c1-c1c(C)cc2c(C(C)C)c(O)c(O)c(C=NCc3ccco3)c2c1O in the assay.
No

Name the outcome recorded for CC1(C)OC2[C@@H](CNC(=O)NC(=O)NC(=O)CI)O[C@@H](n3cnc4c(NC(=O)Nc5ccccc5)ncnc43)[C@H]2O1 (stereo partly specified) in the assay.
No

Name the outcome recorded for C#C[C@]1(O)CC[C@H]2[C@@H]3CC=C4c5nc(Nc6ccccn6)sc5CC[C@]4(C)[C@H]3CC[C@@]21C in the assay.
No

Name the outcome recorded for CCOC(=O)c1c[nH]n2c(=S)ncnc12 in the assay.
No

Name the outcome recorded for O=[N+]([O-])c1cc(CCl)ccc1OCCBr in the assay.
No

Name the outcome recorded for CCN(CCNc1ccc(C)c2sc3cc(Cl)ccc3c(=O)c12)CC(C)O (stereo unspecified) in the assay.
No

Name the outcome recorded for O=c1[nH]c(CN2CCN(c3cccc(Cl)c3)CC2)nc2cc(Cl)ccc12 in the assay.
No

Name the outcome recorded for O=C(Nc1cccc(F)c1)c1cc(=O)[nH]c2cc(Br)ccc12 in the assay.
No

Name the outcome recorded for COc1ccc(-c2cc(-c3ccc(Cl)cc3)nc(SCCCCCCC(=O)NO)n2)cc1 in the assay.
No

Name the outcome recorded for Cn1cc(-c2nnc(-c3cn(C)c4ncccc34)o2)c2ccccc21 in the assay.
No

Name the outcome recorded for O=C(OCc1ccc2c(Cl)cc(Cl)c(O)c2n1)N1CCNCC1 in the assay.
No

Name the outcome recorded for Cn1cc(-c2noc(-c3cn(C)c4ncc(F)cc34)n2)c2cc(Br)ccc21 in the assay.
No

Name the outcome recorded for Cc1ccc(-c2cc(-c3ccc(C)cc3)nc(N3CCN(CCNc4ccnc5cc(Cl)ccc45)CC3)n2)cc1 in the assay.
No
